experiment: Distribution in brain tissues of rats (plasma and brain concentration); format: in vivo; conditions: rat, brain, po; male SD rats, 20 mg/kg p.o., sampling time 24 h; read-out: Measured value in brain tissues Concentration
ENDPOINT: concentration at 24 h (ng/g)
// note: answer is a bare numeric in ng/g

## Task I am curious: what concentration at 24 h value has been reported for CCC/C(O)=C1/C(=O)Oc2ccccc21 [Compound (I)] ?
## Result 285

====

assay: Pharmacokinetic test in rats; format: in vivo, rat; conditions: rat, iv; male SD rats, i.v. 1 mg/kg, plasma
ENDPOINT: half-life
Give the figure together with its unit, number first.

## Task I am curious: what half-life value has been reported for CCC/C(O)=C1/C(=O)Oc2ccccc21 [Compound (I)] ?
## Result 7.5 h
